System: SNB-75 CNS
Assay: NCI-60 one-dose screen, 48 h (100 = growth as untreated, 0 = no growth, -100 = all killed)
Details: 10 µM unless noted
The panel holds about 83,000 compounds, 20% with a hit somewhere; the sample as a whole holds those more often.
MEASURED PARAMETER: growth (%)

{"columns": ["CPD SMILES", "TARGET UNDER TEST", "MEASURED PARAMETER", "QUANTITATIVE READOUT"],
 "data": [
  ["NS(=O)(=O)c1ccc(Nc2nc(N/N=C/c3ccc(C(F)(F)F)cc3)nc(Nc3ccccc3)n2)cc1", "SNB-75 CNS", "growth", 42],
  ["O=C1[C@@H]2Cc3c([nH]c4ccccc34)[C@H](c3c(Cl)cccc3Cl)N2C(=O)CN1C1CCN(Cc2ccccc2)CC1", "SNB-75 CNS", "growth", 62],
  ["O=C(NNc1nc2cc(F)cc(F)c2n2cccc12)c1ncccn1", "SNB-75 CNS", "growth", -7.95],
  ["Cc1ccc(/C=C/CC(=O)Nc2ccc(C(=O)Nc3ccc(F)cc3N)cc2)cn1", "SNB-75 CNS", "growth", 74.8],
  ["COc1cc2c3c(n(CCCN4CCC[C@H]4C(N)=O)c(=O)c2cc1OC)-c1cc2c(cc1C3=O)OCO2", "SNB-75 CNS", "growth", 12]
]}
